Could you please report measured growth inhibition for the items listed next?
Assay Method Text: inhibition of 3D7 malaria parasite growth – strain 3D7 (AID 2306);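 note: 0% = DMSO wells and 100% = chloroquine plus artemisinin control wells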
Details: P. falciparum 3D7 erythrocytic growth, LDH absorbance, 72 h; at 2 µM; stronger effect = higher value
Lab book: enter the figure in %, no units written.

Problem: Provide only the value of recorded growth inhibition for CC(C)(C)C1CCC(C(=O)c2ccc3ccccc3c2O)CC1 (stereo not given)
Solution: 83

Problem: For the compound O=C1C(c2ccccc2)=C(Nc2cccc(OC(F)(F)C(F)F)c2)c2ccccc21 , give its reported growth inhibition.
Solution: 96

Problem: Quick one: give measured growth inhibition for Cc1ccc(Oc2ccc(NC(=O)CNc3ccccc3N3CCCC3=O)cc2)cc1
Solution: 98

Problem: Specify measured growth inhibition for COc1ccccc1C1CCN(C2CCC(NC(=O)/C=C/c3cccc(Cl)c3F)CC2)CC1 (stereo not given) .
Solution: 96

Problem: For the compound CCOc1cc2c(cc1OCC)C(c1ccc(O)c(Cl)c1)NCC2 (stereo not given) , give its measured growth inhibition value.
Solution: 98

Problem: Read the entry Cc1cccc2[nH]c(-c3ccc(-c4cccc(CN5CCC(N)C5)c4)s3)nc12 (stereo not given) and write its reported growth inhibition.
Solution: 95

Problem: Provide only the value of recorded growth inhibition for CCC(C)C#Cc1c(C)nc(N)nc1N (stereo not given)
Solution: 96

Problem: Note growth inhibition for the compound shown: CCN(CC)Cc1cc(Nc2c3ccc(Cl)cc3nc3cccc(OC)c23)ccc1O
Solution: 101

Problem: Give the value of growth inhibition reported for the following: CCN(CC)CCN(Cc1ccc(-c2ccc(C(F)(F)F)cc2)cc1)C(=O)Cn1c(CCc2ccc(F)cc2)nc(=O)c2sccc21
Solution: 99

Problem: Please supply the value of reported growth inhibition for the item COc1ccc(C2CCN(CCCCNC(=O)c3ccc(NC(=O)c4ccc(Cl)cc4)cc3)C2)c(OC)c1 (stereo not given)
Solution: 84

Problem: Give recorded growth inhibition. O=C(/C=C/c1ccc(Cl)c(Cl)c1)N1CCC(CCN2CCC(c3c[nH]c4ccncc34)CC2)CC1
Solution: 101

Problem: Check the records and state growth inhibition for Cc1cc(C(=O)CSc2nc3ccccc3n2-c2ccccc2)c(C)n1C1CCS(=O)(=O)C1 (stereo not given)
Solution: 92

Problem: Given the compound COc1cccc2c(NN=Cc3ccccc3[N+](=O)[O-])cc(C)nc12 , write its reported growth inhibition.
Solution: 99

Problem: Note down growth inhibition recorded for N#Cc1ccc(CN2CCCN(Cc3cccc(NC(=O)c4ccc(-c5ccccc5)cc4)c3)CC2)cc1
Solution: 88

Problem: Specify measured growth inhibition for Nc1c(Cl)cc(C(O)CNCCCCCCOCCc2ccc(O)cc2)cc1Cl (stereo not given) .
Solution: 97

Problem: Return growth inhibition (reported value) for this compound: c1cc(-c2ccc(CN3CCCCC3)cc2)cc(-c2nc3ccccc3[nH]2)c1
Solution: 101

Problem: Input O=C(Nc1ccccc1Cl)c1cc2ccccc2cc1O , output reported growth inhibition.
Solution: 94

Problem: Please list growth inhibition recorded for the compound Cc1cc(N)ncc1-c1ccc(NC(=O)Nc2cc(C(F)(F)F)ccc2F)cc1
Solution: 100

Problem: Given COc1cc2c(Nc3cccc(NC(=O)c4ccccc4)c3)ncnc2cc1OCCCN1CCOCC1 , respond with its growth inhibition.
Solution: 101

Problem: Give the measured growth inhibition for O=C(Nc1nc2cc(S(=O)(=O)NCc3ccc(Cl)c(Cl)c3)ccc2n1CCCn1ccnc1)c1ccc(Cl)cc1
Solution: 101

Origin of values: PubChem BioAssay
